Numbers sourced from ChEMBL document CHEMBL3576850.

# experimental protocol: Inhibition of recombinant his-tagged methicillin-resistant Staphylococcus aureus pyruvate kinase expressed in Escherichia coli BL-21(DE3) using PEP as substrate after 5 mins by L-LDH coupled assay
quantity kind: log10 of IC50 (log10 of the value in nM)
Kindly note that the scale is log10 and the underlying IC50 is in nM.

log10 of IC50 for `O=C(c1nc(-c2c[nH]c3cc(I)ccc23)c[nH]1)c1c[nH]c2cc(I)ccc12` ? 0.52

Now the same for `O=C(c1nc(-c2c[nH]c3cc(Cl)ccc23)c[nH]1)c1c[nH]c2cc(Cl)ccc12` 0.18

Request: `O=C(c1nc(-c2c[nH]c3c(Cl)cccc23)c[nH]1)c1c[nH]c2c(Cl)cccc12` 4.41

Queued: O=C1NC[C@@H](c2c[nH]c3cc(Br)ccc23)N[C@H]1c1c[nH]c2cc(Br)ccc12 (relative stereo) [CIS-3,4-DIHYDROHAMACANTHIN B] 1.20

What about `O=C(c1nc(-c2c[nH]c3ccc(Br)cc23)c[nH]1)c1c[nH]c2ccc(Br)cc12` ? 0.81

Would you mind doing `O=C(c1nc(-c2c[nH]c3cc(F)ccc23)c[nH]1)c1c[nH]c2cc(F)ccc12` as well? 1.38

====

# system: Pyruvate kinase PKM (Homo sapiens)
# experimental protocol: Inhibition of recombinant his-tagged human pyruvate kinase M2 expressed in Escherichia coli BL-21(DE3) using PEP as substrate at 5 uM after 5 mins by L-LDH coupled assay relative to control
I'd be grateful if you could share measured inhibition for these entries.
Report as a plain number; the unit % is understood.

Write down the reported inhibition of `O=C(c1nc(-c2c[nH]c3cc(I)ccc23)c[nH]1)c1c[nH]c2cc(I)ccc12` , test system: Pyruvate kinase PKM (Homo sapiens). 0

Same for `O=C(c1ncc(-c2c[nH]c3cc(Br)ccc23)[nH]1)c1c[nH]c2cc(Br)ccc12` 0

Would you mind doing `O=C(c1nc(-c2c[nH]c3cc(Cl)ccc23)c[nH]1)c1c[nH]c2cc(Cl)ccc12` as well? 0

// query: `O=C(c1nc(-c2c[nH]c3ccc(Br)cc23)c[nH]1)c1c[nH]c2ccc(Br)cc12` 0

====

# system: Pyruvate kinase PKLR (Homo sapiens) (UniProt P30613)
# Sequence (P30613 whole entry, looked up): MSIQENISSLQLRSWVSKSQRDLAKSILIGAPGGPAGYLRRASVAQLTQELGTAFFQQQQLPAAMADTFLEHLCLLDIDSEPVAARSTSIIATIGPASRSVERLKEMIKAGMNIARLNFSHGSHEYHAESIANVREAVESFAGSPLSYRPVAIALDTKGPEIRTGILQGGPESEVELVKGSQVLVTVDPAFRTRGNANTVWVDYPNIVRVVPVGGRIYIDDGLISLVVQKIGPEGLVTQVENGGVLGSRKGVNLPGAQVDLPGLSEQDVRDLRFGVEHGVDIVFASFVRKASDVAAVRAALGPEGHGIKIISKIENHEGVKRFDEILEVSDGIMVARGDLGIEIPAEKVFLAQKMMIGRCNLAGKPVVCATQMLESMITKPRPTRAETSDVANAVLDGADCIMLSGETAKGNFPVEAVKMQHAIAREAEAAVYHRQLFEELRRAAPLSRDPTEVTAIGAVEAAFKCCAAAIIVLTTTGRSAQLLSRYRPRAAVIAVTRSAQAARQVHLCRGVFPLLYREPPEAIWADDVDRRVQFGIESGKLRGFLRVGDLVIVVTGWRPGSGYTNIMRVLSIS
# experimental protocol: Inhibition of recombinant his-tagged human pyruvate kinase R expressed in Escherichia coli BL-21(DE3) using PEP as substrate at 5 uM after 5 mins by L-LDH coupled assay relative to control
quantity kind: inhibition

inhibition for `O=C(c1ncc(-c2c[nH]c3cc(Br)ccc23)[nH]1)c1c[nH]c2cc(Br)ccc12` ? < 40%

Also `O=C(c1nc(-c2c[nH]c3cc(Cl)ccc23)c[nH]1)c1c[nH]c2cc(Cl)ccc12` , if possible. < 40%

Would you kindly repeat that for `O=C(c1nc(-c2c[nH]c3cc(I)ccc23)c[nH]1)c1c[nH]c2cc(I)ccc12` ? < 40%

Now consider `O=C(c1nc(-c2c[nH]c3ccc(Br)cc23)c[nH]1)c1c[nH]c2ccc(Br)cc12` . < 40%
